molecular target: human CD98hc ectodomain (recombinant) (human) (UniProt P08195); assay: ELISA, purified VNAR-Fc titrated on plate-coated CD98hc (1 ug/mL)
Sequence (P08195 206-630): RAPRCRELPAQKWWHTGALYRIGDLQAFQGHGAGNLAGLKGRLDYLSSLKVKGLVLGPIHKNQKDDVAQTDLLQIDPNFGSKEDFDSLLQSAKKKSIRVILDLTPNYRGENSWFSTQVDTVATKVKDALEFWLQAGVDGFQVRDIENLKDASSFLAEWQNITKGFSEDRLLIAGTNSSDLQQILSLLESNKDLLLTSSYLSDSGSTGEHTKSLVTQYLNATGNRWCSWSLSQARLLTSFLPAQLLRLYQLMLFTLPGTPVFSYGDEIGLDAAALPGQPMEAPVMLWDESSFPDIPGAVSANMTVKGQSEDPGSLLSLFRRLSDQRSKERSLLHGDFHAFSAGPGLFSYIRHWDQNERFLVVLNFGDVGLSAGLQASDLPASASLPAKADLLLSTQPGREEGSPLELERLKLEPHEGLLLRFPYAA
MEASURED_ATTRIBUTE: pEC50
Answer as the number alone; pEC50 is minus log10 of concentration in mol/L.

{"columns": ["BINDER", "pEC50"],
 "data": [
  ["G3 VNAR-hFc fusion (Fc fusion, Bivalent VNAR-Fc, VNAR N-terminal to human IgG1 Fc; Expi293; not shown: human IgG1 Fc (hinge, CH2, CH3) of vector pFUSE-hIgG1e3-Fc2) ARVDQTPQTITKETGESLTINCVLRDNNCALSTTYWYRKKSGSTNEENISKGGRYVETVNSGSKSFSLRINDLTVEDSGTYRCKVHFFPSFCNSTSIRSVDVYGGGTVVTVNA", 6.97]
]}

// next item, pEC50 requested
Per the records, this binder ( E12 VNAR-hFc fusion (Fc fusion, Bivalent VNAR-Fc, VNAR N-terminal to human IgG1 Fc; Expi293; not shown: human IgG1 Fc (hinge, CH2, CH3) of vector pFUSE-hIgG1e3-Fc2) ARVDQTPQTITKEEGESLTINCVLRTQDPALASTSWYRKKSGSTREETISKGGRYVETVNSGSKSFSLRINDLTVEDSGTYRCNVYFLLAPTKTKLQGIDVYGDGTAVTVNA ) has pEC50 equal to 7.25

Source of measurements: patent US20220177597A1
